- System: Klebsiella pneumoniae (Kp)
- protocol: Minimum inhibitory concentration (MIC) in nutrient agar, Klebsiella pneumoniae
- Type: cell-based
- condition.info: 48 h, pH 8.2, read-out: Minimum Inhibitory Concentration, Kp
attribute.measured: MIC (µg/mL)
Lab book: enter the figure in µg/mL, no units written.

Notebook: N#CSc1nsnc1-c1cccs1 [Example XIV] , MIC read as 500

Notebook: Cc1ccc(-c2nsnc2SCSC#N)cc1 [Example XXVII] , MIC read as 500

====

- System: Salmonella choleraesuis (Se)
- protocol: Minimum inhibitory concentration (MIC) in nutrient agar, Salmonella choleraesuis
- Format: cell-based
- condition.info: Salmonella enterica, pH 8.2, nutrient agar, 30° C., 48 hours, read-out: Minimum Inhibitory Concentration, SC
- Description: The antimicrobial activity of the compounds of the present invention is set forth as the minimum inhibitory concentration (MIC) for the active compounds and is determined for nine (9) bacteria, using nutrient agar, and seven (7) yeast and fungi, using malt yeast agar. […] The inoculated petri plates are incubated at 30° C. for 48 hours and then read to determine if the test compound which is incorporated into the agar prevented growth of the respective bacteria.
I'd be grateful if you could share measured MIC for these entries.
Please give a number only; it is taken to be in µg/mL.

// MIC lookup, molecule = `Cc1ccc(-c2nsnc2SCSC#N)cc1` , result: 250

Entry `N#CSCSc1nsnc1-c1ccccc1` — recorded MIC = 250

`N#CSc1nsnc1-c1ccc(F)cc1` yielded MIC of 250

====

Provide the recorded MIC for the entries that follow.
- Test system: Penicillium chrysogenum (Pc)
- protocol: Minimum inhibitory concentration (MIC) in malt yeast agar, Penicillium chrysogenum
- Assay type: cell-based
- condition.info: 72 h, pH 5.5, read-out: Minimum Inhibitory Concentration, PC
Number only, in µg/mL; omit the unit.

The compound identified as N#CSc1nsnc1-c1ccc(F)cc1 [Example V] registered its MIC at 2.5

The compound COC(=O)c1ccc(-c2nsnc2SC#N)cc1 [Example XII] showed MIC equal to 100

Record N#CSc1nsnc1-c1ccc(Br)cc1 [Example VI] . Reported MIC: 10

// sample COc1ccc(-c2nsnc2SCSC#N)cc1 [Example XXIII] , its MIC was 50

Recorded MIC (compound N#CSc1nsnc1-c1ccccc1Cl [Example IV] ): 10

Sure, the documented MIC for N#CSCSc1nsnc1-c1ccc(C(F)(F)F)cc1 [Example XXVI] is 2.5

So for N#CSCSc1nsnc1-c1ccccc1 [Example XVI] , the logged MIC turned out to be 2.5

Measured MIC, N#CSCSc1nsnc1-c1cccc(Cl)c1 [Example XIX] : 2.5

====

I'd be grateful if you could share measured MIC for these entries.
- Tested on: Klebsiella pneumoniae (Kp)
- protocol: Minimum inhibitory concentration (MIC) in nutrient agar, Klebsiella pneumoniae
- Format: cell-based
- condition.info: pH 8.2, nutrient agar, 30° C., 48 hours, read-out: Minimum Inhibitory Concentration, Kp
Express your answer in µg/mL, writing the number without its unit.

// assay Klebsiella pneumoniae (Kp), entry `N#CSCSc1nsnc1-c1ccccc1` , MIC value = 100

Log: Klebsiella pneumoniae (Kp), compound `N#CSc1nsnc1-c1ccc(F)cc1` , MIC = 100

Record `N#CSc1nsnc1-c1ccc(Cl)cc1` ; system Klebsiella pneumoniae (Kp); MIC = 250

====

- Test system: Pseudomonas aeruginosa (PRD-10)
- protocol: Minimum inhibitory concentration (MIC) in nutrient agar, Pseudomonas aeruginosa PRD-10
- Format: cell-based
- condition.info: pH 6.8, nutrient agar, 30° C., 48 hours, read-out: Minimum Inhibitory Concentration, PRD
attribute.measured: MIC

Query `N#CSCSc1nsnc1-c1ccc(F)cc1` yields MIC of 250 µg/mL

For record `Cc1ccc(-c2nsnc2SCSC#N)cc1` the listed MIC is 250 µg/mL

GET /value?item= `N#CSc1nsnc1-c1ccc(F)cc1` &field=MIC returns 250 µg/mL

get_value(item= `N#CSCSc1nsnc1-c1ccccc1` , readout=MIC) returns 25 µg/mL

====

- Test system: Enterobacter aerogenes (Ea)
- protocol: Minimum inhibitory concentration (MIC) in nutrient agar, Enterobacter aerogenes
- Format: cell-based
- condition.info: Klebsiella aerogenes, 48 h, pH 6.8, read-out: Minimum Inhibitory Concentration, Ea
attribute.measured: MIC (µg/mL)
Respond with the bare value in µg/mL.

Per the record, `COc1cccc(-c2nsnc2SCSC#N)c1` has MIC of 500

Per the record, `CSc1ccc(-c2nsnc2SCSC#N)cc1` has MIC of 500

// sample `N#CSCSc1nsnc1-c1ccc(C(F)(F)F)cc1` , its MIC was 500

====

- Tested on: Enterobacter aerogenes (Ea)
- protocol: Minimum inhibitory concentration (MIC) in nutrient agar, Enterobacter aerogenes
- Assay type: cell-based
- condition.info: Klebsiella aerogenes, 48 h, pH 8.2, read-out: Minimum Inhibitory Concentration, Ea
Provide the recorded MIC for the entries that follow.

Form field MIC, entry CSc1ccc(-c2nsnc2SCSC#N)cc1 [Example XXIV] : > 500 µg/mL

For COc1ccc(-c2nsnc2SC#N)cc1 [Example VIII] the molecule record lists MIC as > 500 µg/mL

Record summary for N#CSCSc1nsnc1-c1ccc(Cl)cc1 [Example XVIII] : reported MIC = > 500 µg/mL

Form field MIC, entry COc1cccc(-c2nsnc2SCSC#N)c1 [Example XXII] : > 500 µg/mL

Item: CS(=O)(=O)c1ccc(-c2nsnc2SCSC#N)cc1 [Example XXV] | MIC: > 500 µg/mL

Lookup result for N#CSCSc1nsnc1-c1cccnc1 [Example XXXI] ; measured MIC: > 500 µg/mL

Sure, the documented MIC for N#CSCSc1nsnc1-c1cccc(Cl)c1 [Example XIX] is > 500 µg/mL

MIC recorded for this molecule, N#CSc1nsnc1-c1ccccc1 [Example I, 4-Phenyl-3-thiocyanato-1,2,5-thiadiazole] , is 500 µg/mL

The recorded MIC for N#CSCSc1nsnc1-c1ccc(C(F)(F)F)cc1 [Example XXVI] is > 500 µg/mL

// MIC lookup, molecule = CSc1ccc(-c2nsnc2SC#N)cc1 [Example IX] , result: 500 µg/mL

The reported MIC of the molecule N#CSCSc1nsnc1-c1ccccc1Cl [Example XX] was > 500 µg/mL

====

I'd be grateful if you could share measured MIC for these entries.
- System: Candida albicans (Ca)
- protocol: Minimum inhibitory concentration (MIC) in malt yeast agar, Candida albicans
- Assay type: cell-based
- condition.info: pH 5.5; malt yeast agar, 30° C., 48 hours for yeast; read-out: Minimum Inhibitory Concentration, Ca
Could you give me the number in µg/mL? Just the number is fine.

Recorded MIC for CSc1ccc(-c2nsnc2SCSC#N)cc1 [Example XXIV] on Candida albicans (Ca) was 500

Field MIC (Candida albicans (Ca)), entry COC(=O)c1ccc(-c2nsnc2SCSC#N)cc1 [Example XXVIII] : 500

Param item: N#CSc1nsnc1-c1ccc(C(F)(F)F)cc1 [Example X] ; param system: Candida albicans (Ca); output MIC: 5

I looked up N#CSCSc1nsnc1-c1ccc([N+](=O)[O-])cc1 [Example XXIX] and its MIC for Candida albicans (Ca) was 9

N#CSc1nsnc1-c1cccc(Cl)c1 [Example III] tested on Candida albicans (Ca) gave MIC: 5

// returns MIC for CS(=O)(=O)c1ccc(-c2nsnc2SCSC#N)cc1 [Example XXV] with Candida albicans (Ca); value = 500

Readout MIC for COC(=O)c1ccc(-c2nsnc2SC#N)cc1 [Example XII] , test system Candida albicans (Ca), was 10

Form field MIC for item N#CSCSc1nsnc1-c1ccccc1 [Example XVI] on Candida albicans (Ca): 5

The compound N#CSCSc1nsnc1-c1ccc(Br)cc1 [Example XVII] , tested on Candida albicans (Ca), showed MIC of 500

Kindly note: Candida albicans (Ca), CS(=O)(=O)c1ccc(-c2nsnc2SC#N)cc1 [Example XI] , MIC value reported: 500

# lookup: N#CSc1nsnc1-c1ccc(Br)cc1 [Example VI] on Candida albicans (Ca), MIC = 5

# N#CSCSc1nsnc1-c1ccc(F)cc1 [Example XXI] with Candida albicans (Ca): MIC is 9

====

- System: Candida albicans (Ca)
- protocol: Minimum inhibitory concentration (MIC) in malt yeast agar, Candida albicans
- Type: cell-based
- condition.info: pH 5.5; malt yeast agar, 30° C., 48 hours for yeast; read-out: Minimum Inhibitory Concentration, Ca
Exercise: state measured MIC for each of the molecules provided.

Sample `N#CSc1nsnc1-c1ccccc1Cl` ; MIC observed: < 10 µg/mL

Measured MIC, `N#CSCSc1nsnc1-c1ccc(C(F)(F)F)cc1` : > 500 µg/mL

MIC reading for `N#CSc1nsnc1-c1ccc(Cl)cc1` : < 10 µg/mL

According to the records, this molecule `N#CSc1nsnc1-c1ccc([N+](=O)[O-])cc1` displays MIC of < 10 µg/mL
